Form field: relative viability (one value per entry).
Test system: NCI-H1703
Assay: relative viability (nuclei count vs DMSO), 5 days (fraction); higher = more cells survive
Conditions: first compound 0.06325 µM
Give the figure only, with no unit attached.

{"Compound": "CCNC(=O)c1noc(-c2cc(C(C)C)c(O)cc2O)c1-c1ccc(CN2CCOCC2)cc1 [Luminespib] + C[C@]1(O)C[C@@H](c2nc(-c3ccc4ccc(-c5ccccc5)nc4c3)c3c(N)nccn32)C1 [Linsitinib] (partner 1 µM)", "Recorded measurement": 0.0721}
{"Compound": "CCNC(=O)c1noc(-c2cc(C(C)C)c(O)cc2O)c1-c1ccc(CN2CCOCC2)cc1 [Luminespib] + NC(=O)Nc1cc(-c2cccc(F)c2)sc1C(=O)N[C@H]1CCCNC1 [AZD7762] (partner 0.2 µM)", "Recorded measurement": 0.115}
{"Compound": "CCNC(=O)c1noc(-c2cc(C(C)C)c(O)cc2O)c1-c1ccc(CN2CCOCC2)cc1 [Luminespib] + COc1cc2c(Oc3ccc(NC(=O)C4(C(=O)Nc5ccc(F)cc5)CC4)cc3F)ccnc2cc1OCCCN1CCOCC1 [Foretinib] (partner 0.25 µM)", "Recorded measurement": 0.21}

Now let's try a different one.
input: Request body: readout relative viability, system NCI-H1703, query CCNC(=O)c1noc(-c2cc(C(C)C)c(O)cc2O)c1-c1ccc(CN2CCOCC2)cc1 [Luminespib] + C[C@@H](Oc1cc(-c2cnn(C3CCNCC3)c2)cnc1N)c1c(Cl)ccc(F)c1Cl [Crizotinib] (partner 1 µM) . Return the value.
output: 0.119

###

Form field: relative viability (one value per entry).
Tested on: NCI-H2009
Assay: relative viability (nuclei count vs DMSO), 5 days (fraction); higher = more cells survive
Details: first compound 0.03162 µM
Give the figure only, with no unit attached.

Solved entries (count: 5):
{"Compound": "Cc1cn(-c2cc(NC(=O)c3ccc(C)c(Nc4nccc(-c5cccnc5)n4)c3)cc(C(F)(F)F)c2)cn1 [Nilotinib] + CC(=O)Nc1cccc(-n2c(=O)n(C3CC3)c(=O)c3c(Nc4ccc(I)cc4F)n(C)c(=O)c(C)c32)c1 [Trametinib] (partner 0.02 µM)", "relative viability": 0.2}
{"Compound": "Cc1cn(-c2cc(NC(=O)c3ccc(C)c(Nc4nccc(-c5cccnc5)n4)c3)cc(C(F)(F)F)c2)cn1 [Nilotinib] + O=C(c1cc(Cc2n[nH]c(=O)c3ccccc23)ccc1F)N1CCN(C(=O)C2CC2)CC1 [Olaparib] (partner 8 µM)", "relative viability": 0.599}
{"Compound": "Cc1cn(-c2cc(NC(=O)c3ccc(C)c(Nc4nccc(-c5cccnc5)n4)c3)cc(C(F)(F)F)c2)cn1 [Nilotinib] + CC(C)C[C@H](NC(=O)[C@H](Cc1ccccc1)NC(=O)c1cnccn1)B(O)O [Bortezomib] (partner 0.002 µM)", "relative viability": 1.06}
{"Compound": "Cc1cn(-c2cc(NC(=O)c3ccc(C)c(Nc4nccc(-c5cccnc5)n4)c3)cc(C(F)(F)F)c2)cn1 [Nilotinib] + CS(=O)(=O)CCNCc1ccc(-c2ccc3ncnc(Nc4ccc(OCc5cccc(F)c5)c(Cl)c4)c3c2)o1 [Lapatinib] (partner 2 µM)", "relative viability": 1.01}
{"Compound": "Cc1cn(-c2cc(NC(=O)c3ccc(C)c(Nc4nccc(-c5cccnc5)n4)c3)cc(C(F)(F)F)c2)cn1 [Nilotinib] + Nc1ncn([C@H]2C[C@H](O)[C@@H](CO)O2)c(=O)n1 [Decitabine] (partner 2 µM)", "relative viability": 0.406}

input: Please look up its relative viability: Cc1cn(-c2cc(NC(=O)c3ccc(C)c(Nc4nccc(-c5cccnc5)n4)c3)cc(C(F)(F)F)c2)cn1 [Nilotinib] + Nc1nc2[nH]cc(CCc3ccc(C(=O)N[C@@H](CCC(=O)O)C(=O)O)cc3)c2c(=O)[nH]1 [Pemetrexed] (partner 0.2 µM)
output: 1.06

###

System: NCI-H358
Test: relative viability (nuclei count vs DMSO), 5 days (fraction); higher = more cells survive
Conditions: first compound 0.02 µM
Measurement name: relative viability
Give the figure only, with no unit attached.

Solved entries (count: 3):
{"Compound": "CN1CCN(CCOc2cc(OC3CCOCC3)c3c(Nc4c(Cl)ccc5c4OCO5)ncnc3c2)CC1 [Saracatinib] + CC(=O)Nc1cccc(-n2c(=O)n(C3CC3)c(=O)c3c(Nc4ccc(I)cc4F)n(C)c(=O)c(C)c32)c1 [Trametinib] (partner 0.02 µM)", "relative viability": 0.156}
{"Compound": "CN1CCN(CCOc2cc(OC3CCOCC3)c3c(Nc4c(Cl)ccc5c4OCO5)ncnc3c2)CC1 [Saracatinib] + COc1cc2c(Oc3ccc(NC(=O)C4(C(=O)Nc5ccc(F)cc5)CC4)cc3F)ccnc2cc1OCCCN1CCOCC1 [Foretinib] (partner 0.25 µM)", "relative viability": 0.761}
{"Compound": "CCNC(=O)c1noc(-c2cc(C(C)C)c(O)cc2O)c1-c1ccc(CN2CCOCC2)cc1 [Luminespib] + Nc1ncn([C@H]2C[C@H](O)[C@@H](CO)O2)c(=O)n1 [Decitabine] (partner 2 µM)", "relative viability": 0.178}

Now let's try a different one.
input: Request body: readout relative viability, system NCI-H358, query CN1CCN(CCOc2cc(OC3CCOCC3)c3c(Nc4c(Cl)ccc5c4OCO5)ncnc3c2)CC1 [Saracatinib] + Nc1ncn([C@H]2C[C@H](O)[C@@H](CO)O2)c(=O)n1 [Decitabine] (partner 2 µM) . Return the value.
output: 0.224

###

Form field: relative viability (one value per entry).
System: NCI-H2085
Experiment: relative viability (nuclei count vs DMSO), 5 days (fraction); higher = more cells survive
Conditions: first compound 0.006325 µM
Give the figure only, with no unit attached.

Solved entries (count: 3):
{"Compound": "CCNC(=O)c1noc(-c2cc(C(C)C)c(O)cc2O)c1-c1ccc(CN2CCOCC2)cc1 [Luminespib] + COc1cccc2cc(-c3nc([C@H]4CC[C@H](C(=O)O)CC4)n4ncnc(N)c34)[nH]c12 [OSI-027] (partner 0.5 µM)", "relative viability": 0.779}
{"Compound": "CCNC(=O)c1noc(-c2cc(C(C)C)c(O)cc2O)c1-c1ccc(CN2CCOCC2)cc1 [Luminespib] + Cc1cc(Nc2cc(N3CCN(C)CC3)nc(Sc3ccc(NC(=O)C4CC4)cc3)n2)n[nH]1 [Tozasertib] (partner 0.1 µM)", "relative viability": 0.749}
{"Compound": "CCNC(=O)c1noc(-c2cc(C(C)C)c(O)cc2O)c1-c1ccc(CN2CCOCC2)cc1 [Luminespib] + C[C@]1(O)C[C@@H](c2nc(-c3ccc4ccc(-c5ccccc5)nc4c3)c3c(N)nccn32)C1 [Linsitinib] (partner 1 µM)", "relative viability": 0.76}

input: Please look up its relative viability: CCNC(=O)c1noc(-c2cc(C(C)C)c(O)cc2O)c1-c1ccc(CN2CCOCC2)cc1 [Luminespib] + N=C(N)NC(=N)NCCc1ccccc1 [Phenformin] (partner 250 µM)
output: 0.713

input: Please look up its relative viability: CCNC(=O)c1noc(-c2cc(C(C)C)c(O)cc2O)c1-c1ccc(CN2CCOCC2)cc1 [Luminespib] + COc1cc2c(Oc3ccc(NC(=O)C4(C(=O)Nc5ccc(F)cc5)CC4)cc3F)ccnc2cc1OCCCN1CCOCC1 [Foretinib] (partner 0.25 µM)
output: 0.896

input: Please look up its relative viability: CCNC(=O)c1noc(-c2cc(C(C)C)c(O)cc2O)c1-c1ccc(CN2CCOCC2)cc1 [Luminespib] + NC(=O)Nc1cc(-c2cccc(F)c2)sc1C(=O)N[C@H]1CCCNC1 [AZD7762] (partner 0.2 µM)
output: 0.909

###

System: NCI-H838
Assay: relative viability (nuclei count vs DMSO), 5 days (fraction); higher = more cells survive
Conditions: first compound 0.003162 µM
Measurement name: relative viability
Give the figure only, with no unit attached.

Solved entries (count: 6):
{"Compound": "Cc1cn(-c2cc(NC(=O)c3ccc(C)c(Nc4nccc(-c5cccnc5)n4)c3)cc(C(F)(F)F)c2)cn1 [Nilotinib] + CC1(C)CCC(c2ccc(Cl)cc2)=C(CN2CCN(c3ccc(C(=O)NS(=O)(=O)c4ccc(N[C@H](CCN5CCOCC5)CSc5ccccc5)c(S(=O)(=O)C(F)(F)F)c4)cc3)CC2)C1 [Navitoclax] (partner 0.5 µM)", "Measurement name": "relative viability", "Recorded measurement": 1.42}
{"Compound": "Cc1cn(-c2cc(NC(=O)c3ccc(C)c(Nc4nccc(-c5cccnc5)n4)c3)cc(C(F)(F)F)c2)cn1 [Nilotinib] + NC(=O)Nc1cc(-c2cccc(F)c2)sc1C(=O)N[C@H]1CCCNC1 [AZD7762] (partner 0.2 µM)", "Measurement name": "relative viability", "Recorded measurement": 1.01}
{"Compound": "Cc1cn(-c2cc(NC(=O)c3ccc(C)c(Nc4nccc(-c5cccnc5)n4)c3)cc(C(F)(F)F)c2)cn1 [Nilotinib] + N=C(N)NC(=N)NCCc1ccccc1 [Phenformin] (partner 250 µM)", "Measurement name": "relative viability", "Recorded measurement": 0.613}
{"Compound": "Cc1cn(-c2cc(NC(=O)c3ccc(C)c(Nc4nccc(-c5cccnc5)n4)c3)cc(C(F)(F)F)c2)cn1 [Nilotinib] + CS(=O)(=O)N1CCN(Cc2cc3nc(-c4cccc5[nH]ncc45)nc(N4CCOCC4)c3s2)CC1 [Pictilisib] (partner 1 µM)", "Measurement name": "relative viability", "Recorded measurement": 0.491}
{"Compound": "Cc1cn(-c2cc(NC(=O)c3ccc(C)c(Nc4nccc(-c5cccnc5)n4)c3)cc(C(F)(F)F)c2)cn1 [Nilotinib] + Nc1ncn([C@H]2C[C@H](O)[C@@H](CO)O2)c(=O)n1 [Decitabine] (partner 2 µM)", "Measurement name": "relative viability", "Recorded measurement": 0.532}
{"Compound": "Cc1cn(-c2cc(NC(=O)c3ccc(C)c(Nc4nccc(-c5cccnc5)n4)c3)cc(C(F)(F)F)c2)cn1 [Nilotinib] + CCNC(=O)c1noc(-c2cc(C(C)C)c(O)cc2O)c1-c1ccc(CN2CCOCC2)cc1 [Luminespib] (partner 0.01 µM)", "Measurement name": "relative viability", "Recorded measurement": 0.276}

input: Please look up its relative viability: Cc1cn(-c2cc(NC(=O)c3ccc(C)c(Nc4nccc(-c5cccnc5)n4)c3)cc(C(F)(F)F)c2)cn1 [Nilotinib] + COc1cccc2cc(-c3nc([C@H]4CC[C@H](C(=O)O)CC4)n4ncnc(N)c34)[nH]c12 [OSI-027] (partner 0.5 µM)
output: 0.381

input: Please look up its relative viability: Cc1cn(-c2cc(NC(=O)c3ccc(C)c(Nc4nccc(-c5cccnc5)n4)c3)cc(C(F)(F)F)c2)cn1 [Nilotinib] + CC(C)C[C@H](NC(=O)[C@H](Cc1ccccc1)NC(=O)c1cnccn1)B(O)O [Bortezomib] (partner 0.002 µM)
output: 0.731

input: Please look up its relative viability: Cc1cn(-c2cc(NC(=O)c3ccc(C)c(Nc4nccc(-c5cccnc5)n4)c3)cc(C(F)(F)F)c2)cn1 [Nilotinib] + O=C(CCCCCCC(=O)Nc1ccccc1)NO [Vorinostat] (partner 1 µM)
output: 0.783
